B1: KLHDC10 (parent)
chain: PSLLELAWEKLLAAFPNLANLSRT

Variants of: B1
PROCEDURE SUMMARY: protein stability index of a GFP-peptide fusion (GPS, HEK-293T) (PSI 1-6); higher = more stable;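 also: lentivirally expressed fusions sorted by FACS into six bins by GFP to DsRed ratio, PSI derived from sequencing read proportions per bin multiplied by bin number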
CONDITIONS: c terminus: a fixed tail appended
MEASURED PROPERTY: protein stability index
Answer with the value's number alone.

Answered examples (5):
WSLLELAWEKLLAAFPNLANLSRT ... 1.8
PSLLEAAWEKLLAAFPNLANLSRT ... 1.94
PSLSELAWEKLLAAFPNLANLSRT ... 3.52
PSLLELAWEKLLAAFPALANLSRT ... 2.5
PSPLELAWEKLLAAFPNLANLSRT ... 1.72

Consider the variant `PSLLELAWHKLLAAFPNLANLSRT` and give its measured protein stability index.
1.93

// query protein stability index value for entry `PSLLELAWMKLLAAFPNLANLSRT`
1.61

Item under review: `PSLLELAWEKLLTAFPNLANLSRT` . Reported protein stability index?
2.2

Would you kindly share the measured protein stability index for `PSLLELAWEELLAAFPNLANLSRT` ?
1.57

Data request, read-out protein stability index, for `PSLLWLAWEKLLAAFPNLANLSRT`
1.93

Can you share its protein stability index? I mean this variant: `PSLLELAWEKLLAAFPNLANLSCT`
1.98

GET /values?readout=protein stability index&item= `PSLLELRWEKLLAAFPNLANLSRT`
2.35

Fill blank: measured protein stability index of the variant `PSLLELAWEKLLAAFPNLANLVRT` is ____.
1.78

Suppose we examine the variant `PSLLELAWEGLLAAFPNLANLSRT` ; what protein stability index value has been reported?
1.93

Could you tell me which protein stability index is on file for `PSLLELAWEKLLAAFPRLANLSRT` ?
2.09

Report protein stability index for `PSLLELAWEKLWAAFPNLANLSRT` please.
1.71
